// reported EC50 per item
target of assay: human muscarinic M4 receptor (Homo sapiens, UniProt P08173)
Construct: expressed in transfected cells
Sequence (P08173 whole entry): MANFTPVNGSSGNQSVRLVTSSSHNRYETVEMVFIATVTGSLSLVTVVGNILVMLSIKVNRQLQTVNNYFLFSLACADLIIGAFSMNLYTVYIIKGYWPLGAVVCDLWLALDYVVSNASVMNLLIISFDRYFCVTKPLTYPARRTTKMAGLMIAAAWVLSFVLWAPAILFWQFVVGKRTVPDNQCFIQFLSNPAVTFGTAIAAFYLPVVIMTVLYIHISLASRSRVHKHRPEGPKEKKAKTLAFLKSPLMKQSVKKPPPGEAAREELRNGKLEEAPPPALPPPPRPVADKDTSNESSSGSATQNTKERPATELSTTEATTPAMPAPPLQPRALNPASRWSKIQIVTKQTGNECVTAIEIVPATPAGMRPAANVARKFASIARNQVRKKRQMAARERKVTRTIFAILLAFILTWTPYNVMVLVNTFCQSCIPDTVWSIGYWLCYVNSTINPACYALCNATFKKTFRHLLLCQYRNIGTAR
protocol text: Alphascreen Surefire phospho-ERK1/2 functional assay, M4
Type: cell-based
condition info: CHO cells stably expressing human M4; phospho-ERK1/2; read-out: pEC50 M4 (converted)
experimental endpoint: EC50

>>> result("CCOC(=O)N1CCC2(CC(N3CCC(N(CC)CC(F)(F)F)CC3)C2)C1 (single isomer, unassigned) [2-7 Isomer 2]")
"12.6 nM"
>>> result("CCOC(=O)N1CCC2(CC(N3CCC(N(CCOC)CC(F)(F)F)CC3)C2)C1 (single isomer, unassigned) [2-52 Isomer 2]")
"25.1 nM"
>>> result("CCOC(=O)N1CCC2(CC(N3CCC(N(CC4CC4)C(C)=O)CC3)C2)C1 (single isomer, unassigned) [2-20 Isomer 2]")
"39.8 nM"

###

target of assay: human muscarinic M1 receptor (Homo sapiens, UniProt P11229)
Sequence (P11229 1-460): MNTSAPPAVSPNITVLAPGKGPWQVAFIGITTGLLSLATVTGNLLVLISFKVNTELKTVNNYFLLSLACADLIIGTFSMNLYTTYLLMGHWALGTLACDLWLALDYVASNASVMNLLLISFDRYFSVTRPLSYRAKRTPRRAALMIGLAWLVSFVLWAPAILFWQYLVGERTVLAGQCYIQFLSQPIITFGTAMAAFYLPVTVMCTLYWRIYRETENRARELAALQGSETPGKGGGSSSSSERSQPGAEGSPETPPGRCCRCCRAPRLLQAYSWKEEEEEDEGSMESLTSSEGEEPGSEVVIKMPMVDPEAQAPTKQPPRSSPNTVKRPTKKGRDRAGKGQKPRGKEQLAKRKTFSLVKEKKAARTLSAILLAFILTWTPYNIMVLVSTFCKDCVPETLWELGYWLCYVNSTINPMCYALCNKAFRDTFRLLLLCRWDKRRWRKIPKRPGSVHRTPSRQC
protocol text: Alphascreen Surefire phospho-ERK1/2 functional assay, M1
Assay type: cell-based
condition info: CHO cells stably expressing human M1; phospho-ERK1/2; read-out: pEC50 M1 (converted)
experimental endpoint: EC50 (nM)

>>> recorded_number("CCOC(=O)N1CCC2(CC(N3CCC(N(Cc4ccon4)C4CC4)CC3)C2)C1 (single isomer, unassigned) [2-10 Isomer 2]")
794
>>> recorded_number("CCOC(=O)N1CCC2(CC(N3CCC(N(CCO)CC(F)(F)F)CC3)C2)C1 (single isomer, unassigned) [2-51 Isomer 2]")
316
>>> recorded_number("CCOC(=O)N1CCC2(CC(N3CCC(N(CC(F)F)C(C)=O)CC3)C2)C1 (single isomer, unassigned) [2-24 Isomer 2]")
398
>>> recorded_number("CCOC(=O)N1CCC2(CC(N3CCC(N(C(C)=O)C4CC(F)(F)C4)CC3)C2)C1 (single isomer, unassigned) [2-28 Isomer 2]")
158
>>> recorded_number("CCOC(=O)N1CCC2(CC(N3CCC(N(Cc4cnco4)CC(F)(F)F)CC3)C2)C1 (single isomer, unassigned) [2-62 Isomer 2]")
1000
>>> recorded_number("CCOC(=O)N1CCC2(CC(N3CCC(N(CC(C)(C)F)C(C)=O)CC3)C2)C1 (single isomer, unassigned) [2-26 Isomer 2]")
398
>>> recorded_number("CCOC(=O)N1CCC2(CC(N3CCC(N(CC4(OC)CCC4)C(C)=O)CC3)C2)C1 (single isomer, unassigned) [2-30 Isomer 2]")
100
>>> recorded_number("CCOC(=O)N1CCC2(CC(N3CCC(C(C)N(C(=O)CC)C4CC4)CC3)C2)C1 (single isomer, unassigned) [2-14 Isomer 2]")
2510
>>> recorded_number("CCN(C(C)=O)C1CCN(C2CC3(CCN(C(=O)OC)C3)C2)CC1 (single isomer, unassigned) [2-17 Isomer 2]")
1260
>>> recorded_number("CCOC(=O)N1CC2(CC(N3CCC(N(C(C)=O)C4CC4)CC3)C2)C1")
2510
>>> recorded_number("CCOC(=O)N1CCC2(CC(N3CCC(N(CC4(OC)CCC4)C(C)=O)CC3)C2)C1 (single isomer, unassigned) [2-30 Isomer 1]")
1260
>>> recorded_number("CCOC(=O)N1CCC2(CC(N3CCC(N(C(C)=O)C4CCC4)CC3)C2)C1 (single isomer, unassigned) [2-6 Isomer 2]")
100
>>> recorded_number("CCOC(=O)N1CCC2(CC(N3CCC(N(CC)C(=O)OCC)CC3)C2)C1 (single isomer, unassigned) [2-40 Isomer 2]")
501
>>> recorded_number("CCOC(=O)N1CCC2(CC(N3CCC(C(C)(C)N(CC)C(C)=O)CC3)C2)C1 (single isomer, unassigned) [2-64 Isomer 2]")
2510
>>> recorded_number("CCOC(=O)N1CCC2(CC(N3CCC(N(CC)CC(F)(F)F)CC3)C2)C1 (single isomer, unassigned) [2-7 Isomer 2]")
79.4
>>> recorded_number("CCOC(=O)N1CCC2(CC(N3CCC(N(CC(F)(F)F)C(=O)OCCOC)CC3)C2)C1 (single isomer, unassigned) [2-43 Isomer 2]")
2510
>>> recorded_number("CCN(C(C)=O)C1CCN(C2CCC3(C2)CN(C(=O)OC)C3)CC1 (single isomer, unassigned) [3-2 Isomer 2]")
316
>>> recorded_number("CCOC(=O)N1CCC2(CC(N3CCC(N(CC4(C)CCC4)C(C)=O)CC3)C2)C1 (single isomer, unassigned) [Example 2-21 Isomer 2]")
63.1

Hey, just so you know, these numbers are from patent US10167272B2.
